Collected IC50 values appear next to each entry.
Target: LRRK2 Ser935 phosphorylation in SH-SY5Y cells over-expressing recombinant full length LRRK2 (Homo sapiens, UniProt Q5S007)
Construct: A BacMam virus expressing full length recombinant LRRK2 was purchased from Invitrogen; host or cells: SH-SY5Y human neuroblastoma cells transduced with BacMam LRRK2 virus
Sequence (Q5S007 whole entry): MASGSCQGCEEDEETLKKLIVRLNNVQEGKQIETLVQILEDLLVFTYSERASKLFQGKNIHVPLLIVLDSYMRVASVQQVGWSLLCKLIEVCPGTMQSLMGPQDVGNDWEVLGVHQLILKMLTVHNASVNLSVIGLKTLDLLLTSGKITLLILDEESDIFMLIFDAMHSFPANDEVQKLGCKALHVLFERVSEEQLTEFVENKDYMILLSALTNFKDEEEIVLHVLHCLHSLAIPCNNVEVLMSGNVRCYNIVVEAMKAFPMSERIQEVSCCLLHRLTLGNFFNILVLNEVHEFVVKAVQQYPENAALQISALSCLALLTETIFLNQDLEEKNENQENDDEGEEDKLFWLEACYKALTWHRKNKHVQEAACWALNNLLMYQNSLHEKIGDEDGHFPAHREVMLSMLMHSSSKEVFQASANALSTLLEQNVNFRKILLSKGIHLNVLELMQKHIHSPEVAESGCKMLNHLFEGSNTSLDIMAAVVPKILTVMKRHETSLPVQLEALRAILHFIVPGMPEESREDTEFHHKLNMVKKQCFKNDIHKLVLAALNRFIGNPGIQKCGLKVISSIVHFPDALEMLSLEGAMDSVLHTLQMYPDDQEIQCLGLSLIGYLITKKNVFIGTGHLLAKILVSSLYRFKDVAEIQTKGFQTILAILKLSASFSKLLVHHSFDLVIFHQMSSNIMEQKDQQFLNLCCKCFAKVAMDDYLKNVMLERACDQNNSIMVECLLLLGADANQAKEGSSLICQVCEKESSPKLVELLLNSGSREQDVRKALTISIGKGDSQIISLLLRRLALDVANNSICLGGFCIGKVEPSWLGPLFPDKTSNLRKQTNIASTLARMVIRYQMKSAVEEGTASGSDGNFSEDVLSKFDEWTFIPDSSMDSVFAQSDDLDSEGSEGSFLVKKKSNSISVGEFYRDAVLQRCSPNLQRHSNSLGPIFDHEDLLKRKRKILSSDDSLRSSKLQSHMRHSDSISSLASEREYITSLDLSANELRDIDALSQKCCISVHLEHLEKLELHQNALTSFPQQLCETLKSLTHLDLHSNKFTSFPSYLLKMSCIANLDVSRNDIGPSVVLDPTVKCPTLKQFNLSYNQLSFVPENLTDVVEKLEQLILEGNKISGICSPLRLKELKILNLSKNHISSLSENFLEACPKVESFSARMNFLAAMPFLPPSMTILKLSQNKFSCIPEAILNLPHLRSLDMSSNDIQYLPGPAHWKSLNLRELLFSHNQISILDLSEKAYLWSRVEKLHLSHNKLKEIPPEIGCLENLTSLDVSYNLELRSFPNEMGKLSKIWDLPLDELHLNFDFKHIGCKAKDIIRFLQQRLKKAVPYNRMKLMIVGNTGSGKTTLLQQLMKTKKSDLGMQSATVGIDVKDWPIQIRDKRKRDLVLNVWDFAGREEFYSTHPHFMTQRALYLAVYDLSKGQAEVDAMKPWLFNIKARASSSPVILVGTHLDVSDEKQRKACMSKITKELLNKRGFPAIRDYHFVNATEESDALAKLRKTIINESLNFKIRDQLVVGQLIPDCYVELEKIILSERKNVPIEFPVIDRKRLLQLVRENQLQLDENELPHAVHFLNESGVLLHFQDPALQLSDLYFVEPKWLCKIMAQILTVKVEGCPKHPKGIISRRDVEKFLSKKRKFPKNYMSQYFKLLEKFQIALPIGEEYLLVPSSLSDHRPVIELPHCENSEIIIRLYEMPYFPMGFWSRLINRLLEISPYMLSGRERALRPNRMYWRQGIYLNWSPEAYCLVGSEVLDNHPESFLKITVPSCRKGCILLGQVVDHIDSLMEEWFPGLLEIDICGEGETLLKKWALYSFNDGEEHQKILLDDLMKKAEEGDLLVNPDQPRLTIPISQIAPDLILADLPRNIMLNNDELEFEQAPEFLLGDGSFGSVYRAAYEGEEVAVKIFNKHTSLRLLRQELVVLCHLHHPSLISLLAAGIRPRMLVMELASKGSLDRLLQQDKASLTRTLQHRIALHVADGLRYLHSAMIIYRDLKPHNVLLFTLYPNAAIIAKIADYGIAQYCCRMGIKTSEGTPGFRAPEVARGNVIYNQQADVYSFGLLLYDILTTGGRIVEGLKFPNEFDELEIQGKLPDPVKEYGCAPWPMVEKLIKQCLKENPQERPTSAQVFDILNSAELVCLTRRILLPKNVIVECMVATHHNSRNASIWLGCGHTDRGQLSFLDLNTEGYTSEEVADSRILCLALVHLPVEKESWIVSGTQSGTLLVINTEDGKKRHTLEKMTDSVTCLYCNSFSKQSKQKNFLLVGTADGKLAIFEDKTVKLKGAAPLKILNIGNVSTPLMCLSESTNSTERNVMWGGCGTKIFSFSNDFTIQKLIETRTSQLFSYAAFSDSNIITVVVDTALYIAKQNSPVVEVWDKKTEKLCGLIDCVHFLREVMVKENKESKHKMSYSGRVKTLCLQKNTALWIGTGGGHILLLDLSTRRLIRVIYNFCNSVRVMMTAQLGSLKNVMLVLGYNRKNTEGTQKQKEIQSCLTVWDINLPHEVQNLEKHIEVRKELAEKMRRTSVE
Experiment: Recombinant cellular LRRK2 AlphaScreen assay
Assay type: cell-based
Conditions: human neuroblastoma SH-SY5Y cells, BacMam full length LRRK2, 60 minutes with compound, read-out: pIC50 in the recombinant cellular LRRK2 AlphaScreen assay (converted)

Answered examples (6):
Compound: Cc1nc(N2C[C@@H]3C[C@H]2CO3)cc(-n2ncc3cc(C)c(C4CCN(C5CCOC5)CC4F)cc32)n1 (single isomer, unassigned)
IC50: ≤ 1000 nM

Compound: COc1nc(N2C[C@H]3C[C@@H]2CO3)cc(-n2ncc3cc(C)c(C4CCN(C5CCOC5)CC4)cc32)n1 (single isomer, unassigned)
IC50: ≤ 1000 nM

Compound: COc1nc(N2C[C@H]3C[C@@H]2CO3)cc(-n2ncc3cc(C)c(C4CCN(CCS(C)(=O)=O)CC4)cc32)n1
IC50: ≤ 10 nM

Compound: Cc1nc(N2CC3CC2CN3C2COC2)cc(-n2ncc3cc(C)c([C@H]4CC[C@@](C)(O)CC4)cc32)n1 (stereo partly drawn)
IC50: ≤ 1000 nM

Compound: Cc1nc(N2C[C@H]3C[C@@H]2CO3)cc(-n2ncc3cc(C)c(C4CCN(C5CCOC5)CC4F)cc32)n1 (single isomer, unassigned)
IC50: ≤ 1000 nM

Compound: Cc1nc(N2C[C@]3(CO)C[C@H]2CO3)cc(-n2ncc3cc(C)c(C4CCN([C@H]5CCOC5)CC4)cc32)n1
IC50: ≤ 1000 nM

Read off the recorded IC50 for COc1nc(N2C[C@H]3C[C@@H]2CO3)cc(-n2ncc3cc(C)c(C4CCC(N5CCOCC5)CC4)cc32)n1 (single isomer, unassigned)
≤ 1000 nM

Return reported IC50. Input compound: COc1nc(N2C[C@H]3C[C@@H]2CO3)cc(-n2ncc3cc(C)c(C4CCN(CCC(=O)O)CC4)cc32)n1
≤ 1000 nM

Determine its reported IC50: Cc1nc(N2C[C@H]3C[C@@H]2CO3)cc(-n2ncc3cc(Cl)c(C4CCN(C5COC5)CC4)cc32)n1
≤ 1000 nM

Answer with reported IC50 of Cc1nc(N2CC3CCC(C2)O3)cc(-n2ncc3cc(C)c(C4CCN(C5COC5)CC4)cc32)n1
≤ 1000 nM

Look up and state reported IC50 for Cc1nc(N2C[C@H]3C[C@@H]2CO3)cc(-n2ncc3cc(Cl)c(N4CCC(C)(O)C4)cc32)n1 (single isomer, unassigned)
≤ 1000 nM

Please report the measured IC50 for COc1nc(N2C[C@H]3C[C@@H]2CO3)cc(-n2ncc3cc(C)c(C4CCN(CCO)CC4F)cc32)n1 (single isomer, unassigned)
≤ 10 nM
